B1: ZNF232 (parent)
chain: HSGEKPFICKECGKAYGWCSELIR

# Variants of: B1
# PROTOCOL: protein stability index of a GFP-peptide fusion (GPS, HEK-293T) (PSI 1-6); higher = more stable;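 note: lentivirally expressed fusions sorted by FACS into six bins by GFP to DsRed ratio, PSI derived from sequencing read proportions per bin multiplied by bin number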
# APPLIED CONDITIONS: c terminus: a fixed tail appended
REPORTED METRIC: protein stability index
Output spec: single numeric token, no unit.

Input line: Entry under review: C12A . Reported protein stability index?
Output line: 1.85

Input line: Then what about the variant I23H ?
Output line: 2.71

Input line: Then what about the variant K5M ?
Output line: 2.05

Input line: Then what about the variant I23N ?
Output line: 1.97

Input line: Then what about the variant R24P ?
Output line: 2.66

Input line: Then what about the variant K10N ?
Output line: 1.82

Input line: Then what about the variant H1P ?
Output line: 2.37

Input line: Then what about the variant I23E ?
Output line: 2.24

Input line: Then what about the variant C9M ?
Output line: 2.6

Input line: Then what about the variant K14C ?
Output line: 2.73

Input line: Then what about the variant Y16K ?
Output line: 2.11

Input line: Then what about the variant F7Y ?
Output line: 2.52

Input line: Then what about the variant K5E ?
Output line: 3.4

Input line: Then what about the variant E4P ?
Output line: 2.22

Input line: Then what about the variant S2C ?
Output line: 2.12

Input line: Then what about the variant K10R ?
Output line: 1.76

Input line: Then what about the variant P6T ?
Output line: 2.3

Input line: Then what about the variant F7Q ?
Output line: 2.08

Input line: Then what about the variant F7I ?
Output line: 2.56

Input line: Then what about the variant P6R ?
Output line: 2.23

Input line: Then what about the variant S2P ?
Output line: 2.33

Input line: Then what about the variant G13N ?
Output line: 2.1
